- Test system: T1, 4H3120-AA
- T1 chain: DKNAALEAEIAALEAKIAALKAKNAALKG
- Procedure text: two-hybrid library CCmax;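 note: natural log of median RNA to DNA barcode read ratio; higher means stronger binding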
- Test context: mean of both orientations
Quantity kind: interaction score
Could you respond with only the numeric value?

# lookup: interaction score of DKIAALKAKNAALKAEIAALEAEIAALEG [4H3009-AA] -0.531

Now consider DKIAALKAKIAALEAKNAALEAEIAALEG [4H2865-AA] . -0.983

Query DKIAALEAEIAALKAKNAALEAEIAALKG [4H2162-AA] next -1.44

Try the binder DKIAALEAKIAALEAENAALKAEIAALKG [4H2330-AA] -1.29
